Tested on: HSkMC (human skeletal muscle cells)
Assay: cytotoxicity call (relative viability < 0.9)
Conditions: 10 µM
The whole screen tested about 39,000 compounds, of which about 1,500 (3.8%) were called active. For the sample, actives were picked, then their nearest neighbours and some compounds at random.
ATTRIBUTE MEASURED: cytotoxicity call

A selection of reference data follows.
COMPOUND	TARGET DESC	RESULT
CO[C@H]1C[C@H](O[C@H]2[C@H](C)O[C@@H](O[C@@H]3/C(C)=C/C[C@@H]4C[C@@H](C[C@]5(C=C[C@H](C)[C@@H](C6CCCCC6)O5)O4)OC(=O)[C@@H]4C=C(C)[C@@H](O)[C@H]5OC/C(=C\C=C\[C@@H]3C)[C@]54O)C[C@@H]2OC)O[C@@H](C)[C@@H]1O	HSkMC	inactive
C[C@@H]1CN([C@@H](C)CO)C(=O)Cc2cc(NC(=O)Nc3ccc(C(F)(F)F)cc3)ccc2O[C@H]1CN(C)Cc1ccc(-c2ccccc2)cc1	HSkMC	active
COc1ccc(C#Cc2ccc3c(c2)O[C@@H](CN(C)C(C)=O)[C@@H](C)CN([C@H](C)CO)S3(=O)=O)cc1	HSkMC	inactive
C=C(C)C1CCC2(C(=O)O)CCC3(C)C(CCC4C5(C)CCC(O)C(C)(C)C5CCC43C)C12 (stereo not drawn)	HSkMC	inactive
CCNC(=O)[C@@H]1CCCN1C(=O)[C@H](CCCNC(=N)N)NC(=O)[C@H](CC(C)C)NC(=O)[C@@H](CC(C)C)NC(=O)[C@H](Cc1ccc(O)cc1)NC(=O)[C@H](CO)NC(=O)[C@H](Cc1c[nH]c2ccccc12)NC(=O)[C@H](Cc1cnc[nH]1)NC(=O)[C@@H]1CCC(=O)N1	HSkMC	inactive
C[C@@H]1CN([C@H](C)CO)C(=O)c2cc(NS(=O)(=O)c3ccc(Cl)cc3)ccc2O[C@H]1CN(C)Cc1ccc(-c2ccccc2)cc1	HSkMC	active
COc1c(O)cc2oc3cc(O)c(CC=C(C)C)c(O)c3c(=O)c2c1CC=C(C)C [alpha-MANGOSTIN ]	HSkMC	active
COc1ccc(NC(=O)N(C)C[C@@H]2Oc3ccc(NC(=O)CCCCCC(=O)Nc4ccccc4N)cc3C(=O)N([C@@H](C)CO)C[C@@H]2C)cc1	HSkMC	inactive

Briefly, cytotoxicity call measured for C=C(C)C1CCC2(CO)CCC3(C)C(CCC4C5(C)CCC(O)C(C)(C)C5CCC43C)C12 (stereo not drawn) : active

Briefly, cytotoxicity call measured for c1ccc2c(c1)-c1ccc3ccc4cccc5cc-2c1c3c45 : inactive

Briefly, cytotoxicity call measured for Cc1noc(C)c1S(=O)(=O)N(C)C[C@H]1Oc2ccc(NS(C)(=O)=O)cc2CC(=O)N([C@@H](C)CO)C[C@H]1C : inactive

Briefly, cytotoxicity call measured for C[C@H]1CN([C@@H](C)CO)C(=O)c2ccccc2-c2ccccc2CO[C@@H]1CN(C)C(=O)Nc1cccc(F)c1 : inactive

Briefly, cytotoxicity call measured for C[C@@H]1CCCCO[C@@H](CN(C)C(=O)Nc2ccc(F)cc2)[C@@H](C)CN([C@H](C)CO)C(=O)c2cc(NC(=O)C3CCCCC3)ccc2O1 : inactive

Briefly, cytotoxicity call measured for Cc1noc(C)c1NC(=O)N(C)C[C@H]1Oc2c(NC(=O)c3cnccn3)cccc2C(=O)N([C@@H](C)CO)C[C@@H]1C : inactive

Briefly, cytotoxicity call measured for CCCCCCOC(=O)N=C(N)c1ccc(NCc2nc3cc(C(=O)N(CCC(=O)OCC)c4ccccn4)ccc3n2C)cc1.CS(=O)(=O)O : inactive

Briefly, cytotoxicity call measured for COc1ccc(NC(=O)N(C)C[C@H]2Oc3c(NC(=O)c4cnccn4)cccc3C(=O)N([C@@H](C)CO)C[C@H]2C)cc1 : inactive

Briefly, cytotoxicity call measured for C[C@H]1CCCCO[C@@H](CN(C)S(C)(=O)=O)[C@@H](C)CN([C@@H](C)CO)C(=O)c2cc(N(C)C)ccc2O1 : inactive

Briefly, cytotoxicity call measured for C[C@@H]1CN([C@@H](C)CO)C(=O)c2cc(NC(=O)NC3CCCCC3)ccc2O[C@@H](C)CCCCO[C@@H]1CN(C)C(=O)Nc1ccc2c(c1)OCO2 : inactive
